Tested on: Trypanosoma brucei brucei
TEST NAME: Antitrypanosomal activity against TbAt1-deficient bloodstraem form Trypanosoma brucei brucei B48 after 72 hrs by alamar blue assay
Format: functional, organism-based
ASSAY SETUP: B48, 72 h
OBSERVATION TYPE: pEC50
As a rule, pEC50 stands for the negative log10 of the concentration, concentration in M.

CCCC[n+]1cccc(CCCCCCCCCCCCCO)c1 6.70
c1cc2c[n+](c1)CCCCCCCCCCCCCc1ccc[n+](c1)CCCCCCCCCCCCCc1ccc[n+](c1)CCCCCCCCCCCCC2 6.55
OCCCCCCCCCCCCCc1cccnc1 4.46
NCCS[As](SCCN)c1ccc(Nc2nc(N)nc(N)n2)cc1 6.68
C[n+]1cccc(CCCCCCCCCCCCCI)c1 6.96
OCCCCCCCCCCCCCc1ccc[n+](CCCCCCCCCCCCCc2ccc[n+](CCCCCCCCCCCCCc3ccc[n+](CCCCCCCCCCCCCc4cccnc4)c3)c2)c1 6.48
CCCC[n+]1cccc(CCCCCCCCCCCCCI)c1 7.47
COc1ccc(C[n+]2cccc(CCCCCCCCCCCCCO)c2)cc1 7.21

**Query** GET /values?readout=pEC50&system=Trypanosoma brucei brucei&item= OCCCCCCCCCCCCCc1ccc[n+](CCCCCCCCCCCCCc2ccc[n+](CCCCCCCCCCCCCc3cccnc3)c2)c1
**Result** 6.60
